Dear all, I have gathered published IC50 values for High affinity nerve growth factor receptor (Homo sapiens); the list follows.

Worked set:
[[record]]
compound = "COc1cc2nccc(Oc3ccc(NC(=O)c4cccn(-c5ccc(F)cc5)c4=O)cc3F)c2c2c1OCCO2"
quantity = "IC50"
result = "< 50 nM"

[[record]]
compound = "O=C(Nc1c2c(nn1-c1ccccc1)CCC2)N[C@@H]1CN(C(CF)CF)C[C@H]1c1ccccc1 (relative stereo)"
quantity = "IC50"
result = "100 to 1000 nM"

[[record]]
compound = "Fc1cc(F)cc(-c2ccc3[nH]nc(C#Cc4ccccn4)c3c2)c1"
quantity = "IC50"
result = "> 1000 nM"

[[record]]
compound = "CCn1cc(C(=O)Nc2ccc(Oc3ccnc4cc(OCCOC)c5c(c34)OCCO5)c(F)c2)c(=O)n(-c2ccc(F)cc2)c1=O"
quantity = "IC50"
result = "< 50 nM"

[[record]]
compound = "COCCN1CC(c2ccccc2)[C@H](NC(=O)Nc2c(-c3ccccc3)nn3ccccc23)C1 (stereo partly shown)"
quantity = "IC50"
result = "< 100 nM"


Reported IC50 (High affinity nerve growth factor receptor (Homo sapiens)) for entry O=C(Nc1cc(F)cc(F)c1)c1ccc2[nH]nc(/C=C/c3ccccn3)c2c1 is 577 nM

Reported IC50 (High affinity nerve growth factor receptor (Homo sapiens)) for entry COc1cc(N2CCN(C(C)=O)CC2)ccc1NC(=O)c1coc2c1C(=O)NC(C)(C)C2 is 25 nM
